Settings: in DMF, 278.15 K

Mol Smiles	solubility (mole fraction)
CC(C)C(=O)Nc1ccc([N+](=O)[O-])c(C(F)(F)F)c1	0.382

---

Conditions: in ethyl acetate, 293.15 K

Mol Smiles	solubility (mole fraction)
CC(C)C(=O)Nc1ccc([N+](=O)[O-])c(C(F)(F)F)c1	0.131

---

Conditions: in ethyl acetate, 318.15 K
Endpoint: solubility (mole fraction)

Mol Smiles	Number
CC(C)C(=O)Nc1ccc([N+](=O)[O-])c(C(F)(F)F)c1	0.205

---

Details: in methyl acetate, 283.15 K
Endpoint: solubility (mole fraction)

Mol Smiles	Number
CC(C)C(=O)Nc1ccc([N+](=O)[O-])c(C(F)(F)F)c1	0.103

---

Settings: in DMF, 293.15 K
Endpoint: solubility (mole fraction)

Mol Smiles	Number
CC(C)C(=O)Nc1ccc([N+](=O)[O-])c(C(F)(F)F)c1	0.41

---

Conditions: in DMSO, 298.15 K

Mol Smiles	solubility (mole fraction)
CC(C)C(=O)Nc1ccc([N+](=O)[O-])c(C(F)(F)F)c1	0.443

---

Details: in methanol, 298.15 K

Mol Smiles	solubility (mole fraction)
CC(C)C(=O)Nc1ccc([N+](=O)[O-])c(C(F)(F)F)c1	0.065

---

Details: in dichloromethane, 303.15 K

Mol Smiles	solubility (mole fraction)
CC(C)C(=O)Nc1ccc([N+](=O)[O-])c(C(F)(F)F)c1	0.0223

---

Settings: in acetone, 298.15 K

Mol Smiles	solubility (mole fraction)
CC(C)C(=O)Nc1ccc([N+](=O)[O-])c(C(F)(F)F)c1	0.209

---

Settings: in dichloromethane, 283.15 K

Mol Smiles	solubility (mole fraction)
CC(C)C(=O)Nc1ccc([N+](=O)[O-])c(C(F)(F)F)c1	0.00924

---

Settings: in ethyl acetate, 313.15 K

Mol Smiles	solubility (mole fraction)
CC(C)C(=O)Nc1ccc([N+](=O)[O-])c(C(F)(F)F)c1	0.187

---

Conditions: in ethylene glycol, 293.15 K

Mol Smiles	solubility (mole fraction)
CC(C)C(=O)Nc1ccc([N+](=O)[O-])c(C(F)(F)F)c1	0.00195

---

Details: in ethylene glycol, 298.15 K

Mol Smiles	solubility (mole fraction)
CC(C)C(=O)Nc1ccc([N+](=O)[O-])c(C(F)(F)F)c1	0.00241

---

Details: in acetone, 323.15 K
Endpoint: solubility (mole fraction)

Mol Smiles	Endpoint	Number
CC(C)C(=O)Nc1ccc([N+](=O)[O-])c(C(F)(F)F)c1	solubility (mole fraction)	0.293

---

Conditions: in 2-ethoxyethanol, 298.15 K

Mol Smiles	solubility (mole fraction)
CC(C)C(=O)Nc1ccc([N+](=O)[O-])c(C(F)(F)F)c1	0.176

---

Details: in DMF, 313.15 K
Endpoint: solubility (mole fraction)

Mol Smiles	Number
CC(C)C(=O)Nc1ccc([N+](=O)[O-])c(C(F)(F)F)c1	0.462

---

Conditions: in ethyl acetate, 308.15 K

Mol Smiles	solubility (mole fraction)
CC(C)C(=O)Nc1ccc([N+](=O)[O-])c(C(F)(F)F)c1	0.17

---

Settings: in 2-methoxyethanol, 318.15 K

Mol Smiles	solubility (mole fraction)
CC(C)C(=O)Nc1ccc([N+](=O)[O-])c(C(F)(F)F)c1	0.229
